# Test target: potassium channels (Sus scrofa, UniProt F1SR11)
# Assay comment: Functional potassium channel opening activity in isolated Landrace pig bladder strips (field-stimulated twitch)
# Condition summary: negative logarithm of ED50
// label = y if Landrace Pig Bladder pD2 is not less than 6, otherwise n

Data request: # check: Landrace Pig Bladder pD2 of O=C1CCC2=C1C(c1ccc(F)c(Br)c1)C1=C(CCS1(=O)=O)N2 (single isomer, unassigned; (+)) [Example 87] is greater than or equal to 6
Data returned: y

Data request: Hi team, for O=C1CCCC2=C1C(c1ccc(Cl)c([N+](=O)[O-])c1)C1=C(CCS1(=O)=O)N2 (single isomer, unassigned; (-)) [Example 100] , is the recorded Landrace Pig Bladder pD2 at or above 6?
Data returned: y

Data request: # check: Landrace Pig Bladder pD2 of O=[N+]([O-])c1cc(C2C3=C(CCS3(=O)=O)NC3=C2S(=O)(=O)CC3)ccc1Cl [Example 51] is greater than or equal to 6
Data returned: n

Data request: Record O=C1CCCC2=C1C(c1cccc([N+](=O)[O-])c1)C1=C(CCCS1(=O)=O)N2 (stereo not shown) [Example 1] ; criterion: Landrace Pig Bladder pD2 no lower than 6. Met?
Data returned: n

Data request: # bool: Landrace Pig Bladder pD2 of CC1(C)CCC2=C(C1=O)C(c1ccc(F)c(Br)c1)C1=C(CCS1(=O)=O)N2 (stereo not shown) [Example 116] >= 6
Data returned: y

Data request: Does the reported Landrace Pig Bladder pD2 for N#Cc1cccc(C2C3=C(CCC3=O)NC3=C2S(=O)(=O)CC3)c1 (stereo not shown) [Example 52] fall at or above the 6 mark?
Data returned: n

Data request: Given O=C1CCCC2=C1C(c1ccc(F)c(Br)c1)C1=C(CCS1(=O)=O)N2 (stereo not shown) [Example 43] , state whether its Landrace Pig Bladder pD2 is at least 6.
Data returned: y

Data request: Assess whether reported Landrace Pig Bladder pD2 for O=S1(=O)CCC2=C1C(c1ccc(F)c(Br)c1)C1=C(CCS1(=O)=O)N2 [Example 53] sits at 6 or higher.
Data returned: y

Data request: Say whether O=C1CCCC2=C1C(c1ccc(F)c(Cl)c1)C1=C(CCS1(=O)=O)N2 (stereo not shown) [Example 81] shows Landrace Pig Bladder pD2 of 6 or more.
Data returned: y

Data request: Is the recorded value of Landrace Pig Bladder pD2 equal to or greater than 6 for this compound? O=S1(=O)CCC2=C1C(c1ccc(Cl)c(C(F)(F)F)c1)C1=C(CCS1(=O)=O)N2 [Example 122]
Data returned: n

Data request: Given O=C1CCC2=C1C(c1cccc([N+](=O)[O-])c1)C1=C(CCS1(=O)=O)N2 (stereo not shown) [Example 58] , state whether its Landrace Pig Bladder pD2 is at least 6.
Data returned: n

Data request: Is Landrace Pig Bladder pD2 at least 6? Consider O=C1CCCC2=C1C(c1cc(Br)cs1)C1=C(CCS1(=O)=O)N2 (single isomer, unassigned) [Example 180]
Data returned: n

Data request: Identify whether the reported Landrace Pig Bladder pD2 of the following compound is 6 or greater: CC(=O)C1=C(C)NC2=C(C1c1ccc(Cl)c([N+](=O)[O-])c1)S(=O)(=O)CCC2 (stereo not shown) [Example 36]
Data returned: n

Data request: Evaluate O=C1CCCC2=C1C(c1cccc(F)c1)C1=C(CCCS1(=O)=O)N2 (stereo not shown) [Example 11] : Landrace Pig Bladder pD2 at minimum 6?
Data returned: n

Data request: Does Landrace Pig Bladder pD2 meet or surpass 6 for CC(=O)C1=C(C)NC2=C(C1c1ccc(F)c(Br)c1)S(=O)(=O)CCC2 (stereo not shown) [Example 66] ?
Data returned: y

====

# Test target: UniProt F1SR11
# Assay comment: Functional potassium channel opening activity in isolated Landrace pig bladder strips (field-stimulated twitch)
# Condition summary: pig, maximal efficacy relative to P1075; field stimulation 0.05Hz, 0.5 milli-seconds at 20 volts
Please go through the items and note down their Emax.
Kindly report the value followed by its unit.

Data request: So what's the measured Emax for this one? CC1=C(S(C)(=O)=O)C(c2ccc(F)c(Br)c2)C2=C(CCCC2=O)N1 (stereo not shown) [Example 25]
Data returned: 88%

Data request: Fill blank: measured Emax of the compound O=[N+]([O-])c1cc(C2C3=C(CCS3(=O)=O)NC3=C2S(=O)(=O)CC3)ccc1Cl [Example 51] is ____.
Data returned: 99%

Data request: Would you kindly share the measured Emax for O=C1CCC2=C1C(c1csc([N+](=O)[O-])c1)C1=C(CCS1(=O)=O)N2 (stereo not shown) [Example 69] ?
Data returned: 98%

Data request: Which Emax value belongs to O=C1CCCC2=C1C(c1ccc(F)c(Br)c1)C1=C(CCCS1(=O)=O)N2 (stereo not shown) [Example 4] ?
Data returned: 93%

Data request: Value lookup for Emax; key = O=S1(=O)CCC2=C1C(c1ccc(Br)c(Br)c1)C1=C(CCS1(=O)=O)N2 [Example 124]
Data returned: 99%

Data request: Need Emax, item O=C1CCC2=C1C(c1ccc(F)c(Br)c1)C1=C(CCS1(=O)=O)N2 (stereo not shown) [Example 56]
Data returned: 97%

Data request: GET /values?readout=Emax&item= O=C1CCCC2=C1[C@@H](c1ccc(F)c(Br)c1)C1=C(CCS1(=O)=O)N2 [Example 83]
Data returned: 100%

Data request: Data request, read-out Emax, for O=S1(=O)CCC2=C1C(c1ccc(F)c(C(F)(F)F)c1)C1=C(CCS1(=O)=O)N2 [Example 65]
Data returned: 100%

Data request: Recorded Emax of O=C1CCC2=C1C(c1ccc(F)c(C(F)(F)F)c1)C1=C(CCS1(=O)=O)N2 (stereo not shown) [Example 57] , please.
Data returned: 100%

Data request: GET /values?readout=Emax&item= O=[N+]([O-])c1cccc(C2C3=C(CCS3(=O)=O)NC3=C2S(=O)(=O)CC3)c1 [Example 73]
Data returned: 98%

Data request: Given the entry CC1=C(S(C)(=O)=O)C(c2ccc(C)c([N+](=O)[O-])c2)C2=C(CCCC2=O)N1 (stereo not shown) [Example 23] , report its measured Emax.
Data returned: 81%

Data request: Quick check: Emax of O=C1CCC2=C1C(c1cccc([N+](=O)[O-])c1)C1=C(CCS1(=O)=O)N2 (stereo not shown) [Example 58] ?
Data returned: 94%

Data request: So what does the record say about Emax for O=C1CCCC2=C1C(c1ccc(F)c(Cl)c1)C1=C(CCCS1(=O)=O)N2 (stereo not shown) [Example 3] ?
Data returned: 85%

Data request: I would be grateful if you could share the reported Emax for O=S1(=O)CCC2=C1C(c1ccc(F)c(Br)c1)C=C(C(F)(F)F)N2 (single isomer, unassigned) [Example 136] .
Data returned: 92%

Data request: Any idea what its Emax is? The compound is O=S1(=O)CCC2=C1C(c1ccc(F)c(Br)c1)C=C(C(F)(F)F)N2 (stereo not shown) [Example 112]
Data returned: 99%

Data request: So what does the record say about Emax for O=C1CCCC2=C1C(c1ccc(F)c(I)c1)C1=C(CCS1(=O)=O)N2 (single isomer, unassigned) [Example 149] ?
Data returned: 80%

====

Field: Landrace Pig Bladder Index. Provide a value for each of the compounds that follow.
# Test target: potassium channels (Sus scrofa)
# Assay comment: Functional potassium channel opening activity in isolated Landrace pig bladder strips (field-stimulated twitch)
# Condition summary: ED50 for P1075 divided by ED50 for the test agonist, averaged over tissues
Respond using a number only.

Data request: Reported Landrace Pig Bladder Index for potassium channels (Sus scrofa), given O=C1CCCC2=C1C(c1ccc(Br)s1)C1=C(CCS1(=O)=O)N2 (single isomer, unassigned) [Example 167] ?
Data returned: 0.062

Data request: Form field - read-out: Landrace Pig Bladder Index; system: potassium channels (Sus scrofa); submitted item: O=S1(=O)CCC2=C1C(c1ccc(Cl)c(Cl)c1)C1=C(CCS1(=O)=O)N2 [Example 77]
Data returned: 0.046

Data request: GET /values?readout=Landrace Pig Bladder Index&system=potassium channels (Sus scrofa)&item= CC(=O)C1=C(C)NC2=C(C1c1ccc(Cl)c([N+](=O)[O-])c1)S(=O)(=O)CCC2 (stereo not drawn) [Example 36]
Data returned: 0.040

Data request: Which Landrace Pig Bladder Index is reported with potassium channels (Sus scrofa) for this entry: O=[N+]([O-])c1cccc(C2C3=C(CCS3(=O)=O)NC3=C2S(=O)(=O)CC3)c1 [Example 73] ?
Data returned: 0.0022

Data request: Return Landrace Pig Bladder Index measured with potassium channels (Sus scrofa) given this compound: O=C1CCCC2=C1C(c1ccc(Cl)c([N+](=O)[O-])c1)C1=C(CCCS1(=O)=O)N2 (stereo not drawn) [Example 19]
Data returned: 0.13

Data request: Quick check: Landrace Pig Bladder Index on potassium channels (Sus scrofa), item O=C1CCCC2=C1C(c1ccc(F)c(C(F)(F)F)c1)C1=C(CCS1(=O)=O)N2 (single isomer, unassigned; (-)) [Example 139] ?
Data returned: 0.13

Data request: Request - read-out Landrace Pig Bladder Index | tested on potassium channels (Sus scrofa) | compound CC1=C(C(=O)O)C(c2ccc(F)c(Br)c2)C2=C(CCS2(=O)=O)N1 (stereo not drawn) [Example 106]
Data returned: 0.014

Data request: Record lookup: for potassium channels (Sus scrofa), what Landrace Pig Bladder Index belongs to O=C1CCCC2=C1C(c1cccc(F)c1)C1=C(CCCS1(=O)=O)N2 (stereo not drawn) [Example 11] ?
Data returned: 0.0021

Data request: Param readout = Landrace Pig Bladder Index; param system = potassium channels (Sus scrofa); param query = O=C1CCC2=C1C(c1ccc(Cl)c([N+](=O)[O-])c1)C1=C(CCCS1(=O)=O)N2 (stereo not drawn) [Example 38] ; response: value
Data returned: 0.14

Data request: Test system potassium channels (Sus scrofa); read-out Landrace Pig Bladder Index; what value for O=C1CCCC2=C1C(c1ccc(F)c(Br)c1)C1=C(CCS1(=O)=O)N2 (stereo not drawn) [Example 43] ?
Data returned: 0.41

Data request: # get_value(readout= Landrace Pig Bladder Index, system= potassium channels (Sus scrofa)) for O=C1CCCC2=C1C(c1ccc(F)c(Cl)c1)C1=C(CCCS1(=O)=O)N2 (stereo not drawn) [Example 3]
Data returned: 0.11

Data request: Under potassium channels (Sus scrofa): Landrace Pig Bladder Index value of N#Cc1cccc(C2C3=C(CCC3=O)NC3=C2S(=O)(=O)CC3)c1 (stereo not drawn) [Example 52] ?
Data returned: 0.018

Data request: Item O=C1CCC2=C1C(c1ccc(F)c(Br)c1)C1=C(CCS1(=O)=O)N2 (single isomer, unassigned; (+)) [Example 87] with potassium channels (Sus scrofa) - Landrace Pig Bladder Index?
Data returned: 0.90

Data request: Checklist item: Landrace Pig Bladder Index tested on potassium channels (Sus scrofa), entry O=C1CCC2=C1C(c1ccc(Cl)c(Cl)c1)C1=C(CCS1(=O)=O)N2 (single isomer, unassigned) [Example 146] , value?
Data returned: 0.40

Data request: Give potassium channels (Sus scrofa) Landrace Pig Bladder Index for O=C1CCC2=C1C(c1ccc(Cl)c([N+](=O)[O-])c1)C1=C(CCS1(=O)=O)N2 (stereo not drawn) [Example 44]
Data returned: 0.15

Origin of the recorded values: patent US6593335B1
